Where do these numbers come from? They come from PubChem BioAssay (NCI).

System: SNB-75 CNS
Test: NCI-60 one-dose screen, 48 h (100 = growth as untreated, 0 = no growth, -100 = all killed)
Conditions: 10 µM unless noted
About 83,000 compounds went through this panel and 20% of them were active in at least one assay; those are over-represented in the sample as a whole.
Mark 1.0 for reported growth of 50% or greater; mark 0.0 for anything smaller.

input: Does the reported growth for COc1cc(C2C3=C(COC3=O)N(CCO)c3cc4c(cc32)OCCO4)cc(OC)c1O (stereo not given) fall at or above the 50% mark?
output: 0.0

input: growth >= 50% for NCCOc1ncccc1/C=C1\c2ccccc2-c2ccc([N+](=O)[O-])cc21 ?
output: 0.0

input: Confirm if growth reported for the molecule Nc1nc(-c2ccccc2Br)nn1-c1nc2ccccc2s1 is 50% or above.
output: 1.0

input: Quick check, growth >= 50%? Cc1ccccc1CNC(=O)C1CN(c2ccc(Cl)cc2)N(c2ccc(Cl)cc2)C1=O (stereo not given)
output: 1.0

input: Check the entry COc1ccc(C2C3=C(COC3=O)N(CCO)c3cc4c(cc32)CCC4)cc1 (stereo not given) : does growth equal or exceed 50%?
output: 0.0

input: growth >= 50% for Cc1ccc2[nH]c(=O)cc(-n3nncc3Cn3c4ccccc4c4ccccc43)c2c1 ?
output: 1.0

input: Given COc1ccc(/C=C2\N=C(c3ccccc3)N(c3ccc(-c4nc5ccc(C)cc5s4)cc3)C2=O)cc1 , state whether its growth is at least 50%.
output: 1.0

input: Reported growth reaches at least 50% for O=C(c1nc2ccccc2[nH]1)C1[C@@H](c2cccc(O)c2)C2CC3CCCCC3N2[C@@]12C(=O)Nc1cc(Cl)ccc12 (stereo not given in full) ?
output: 0.0

input: Is growth at least 50%? Consider O=c1oc2ccc(I)cc2c(=O)n1-c1ccc(Br)cc1F
output: 0.0

====

System: RXF 393 renal
Experiment: NCI-60 one-dose screen, 48 h
Details: 10 µM unless noted
About 83,000 compounds went through this panel and 20% of them were active in at least one assay; those are over-represented in the sample as a whole. The source made the active and inactive calls. How the source made its calls: active means growth percent below 10; inactive means the rest.
Entry note: the call must match one of active, inactive

input: Record lookup: outcome of this test for C1=CC2(C=C1)OC21CCC2(C=CC3(C2)OC3C2CCCCC2)CC1 (stereo unspecified) ?
output: inactive

input: Which outcome was entered for the compound O=c1oc2ccc(F)cc2c(=O)n1-c1ccc(I)cc1F in this test?
output: active

input: Status in this test for COC(=O)c1cc2c(n1Cc1ccccc1)-c1oncc1CCC2 ?
output: inactive

input: What did this assay record as the result for O=C(Nc1nc2c(s1)CCc1c-2c(Br)n(Cc2ccccc2)c1Br)c1ccccc1 ?
output: inactive

input: Which outcome was assigned to O=C1Nc2ccccc2/C1=C/c1ccc[nH]1 in this test?
output: inactive

input: # fetch the recorded call for COc1cccc(/C=C/C(=O)c2c(C)nc3ccccc3c2/C=C/c2ccccc2)c1OC here
output: inactive

====

Tested on: NCI-H322M lung
Assay: NCI-60 one-dose screen, 48 h (100 = growth as untreated, 0 = no growth, -100 = all killed)
Conditions: 10 µM unless noted
About 83,000 compounds went through this panel and 20% of them were active in at least one assay; those are over-represented in the sample as a whole.
Mark Yes for reported growth of 80% or greater; mark No for anything smaller.

input: Check if growth >= 80% (inclusive). Item: O=C(CCc1nnc2sc(-c3ccc(Cl)cc3Cl)nn12)c1nc2ncccc2[nH]1
output: No

input: Kindly determine if growth recorded for COc1cccc(-c2nn(C)c3sc(C(=O)NCCN4CCN(c5ccccc5F)CC4)cc23)c1 is above or exactly 80%.
output: Yes

input: Decide: is the reported value of growth for C1=CC2(C=C1)OC21CCC2(C=CC3(C2)OC3C2CCCCC2)CC1 (stereo not given) equal to or greater than 80%?
output: Yes

input: Please check the record O=C(CN1C=NC2C(N3CCOCC3)=NC=NC21)c1ccc(Br)cc1 (stereo not given) and state if its growth is at or above 80%.
output: Yes

input: Can CCCCNc1nc(NC(C)(C)C)nc(NC(C)(C)C)n1 be said to have growth at or above 80%?
output: Yes

input: Threshold query (growth >= 80%) on CC(=O)c1ccc(Cc2ccc(C(C)=O)s2)s1
output: Yes

input: Given NC1(N2SC(S)=C3CCCC=C32)CCCCC1 , state whether its growth is at least 80%.
output: Yes

input: Has CCOc1ccc(Nc2ccnc3cc(Cl)ccc23)cc1 a recorded growth greater than or equal to 80%?
output: No

input: Answer whether growth of COc1cc(/C=C2\CN(S(=O)(=O)c3ccccc3)C/C(=C\c3cc(CN4CCCC4)c(O)c(OC)c3)C2=O)cc(CN2CCCC2)c1O is greater than or equal to 80%.
output: No
